System: HT29 colon
Assay: NCI-60 one-dose screen, 48 h (100 = growth as untreated, 0 = no growth, -100 = all killed)
Details: 10 µM unless noted
Method: Growth inhibition of the HT29 human tumor cell line is measured as a screen for anti-cancer activity. Cells are grown in 96 well plates and exposed to the test compound for 48 hours. Compounds are tested at a single concentration, which is 10^-5 M for most compounds. The reported endpoint is percent growth (GI% or GIPRCNT), where numbers from 0 - 100% represent growth inhibition, and numbers from -100% - 0 represent cell death. For example, a value of 40 represents 60% growth inhibition. […]
This is part of a sample that, as a whole, favours compounds with a hit. Of some 83,000 tested, about 20% had one in any assay.

| compound | growth [%] |
| --- | --- |
| COc1ccc(OC)c(/C=C/C(=O)N/N=C/c2ccccc2)c1 | 20.7 |
| COc1ccc2c(c1OC)C(=O)O[C@H]2[C@H]1c2c(cc3c(c2OC)OCO3)CCN1C | 104 |
| COc1ccc(/C=N/Nc2cc(=O)[nH]c3ccc(C)cc23)cc1 | 94.7 |
| NCCCNc1nc2ccccc2c2c(=O)c3cccc(F)c3sc12 | -14.1 |
| c1cc(-c2nnc(SSc3ncnc4nc[nH]c34)o2)ccn1 | 18.9 |
| O=C(O)C(c1ccccc1)N1C(=O)CSC1=S (centres undefined) | 106 |
| CC(=O)CC[C@H]1C(=O)N[C@@H](C(C)C)C(=O)N[C@@H](Cc2cc(O)cc(F)c2)C(=O)N2CCC[C@H](N2)C(=O)O[C@H](/C(C)=C/C=C/C(=O)OC(C)(C)C)C/C=C/C=C/[C@H](O)[C@H](C)[C@H]1O | 29.6 |
| COc1ccc(CN2c3ccccc3Sc3ccccc32)c(F)c1 | 3.61 |
| COc1cc(-c2nc3sccn3c2-c2ccnc(NCCCNS(=O)(=O)c3ccc(F)cc3)n2)ccc1F | 61 |
